B1: tRNA (parent)
chain: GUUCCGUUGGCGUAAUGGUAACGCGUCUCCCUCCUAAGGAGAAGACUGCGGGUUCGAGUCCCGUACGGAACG

Variants of: B1
measurement.notes: yeast fitness relative to wild type (ratio to wild type); higher = fitter; tRNA-Arg(CCU), competitive growth, 37 C, YPD
Fewer inactive variants are shown than the library holds.
measure: yeast fitness

> print(dat)
                           alteration        measure  relation.sign  endpoint.result
 1                          C33A G68C  yeast fitness              =            0.744
 2  C5U C22U C27U A42G C55A C60A A70U  yeast fitness              =             0.57
 3                     U16G A40U C62G  yeast fitness              =            0.566
 4                C11G U26C G67C A69C  yeast fitness              ≤              0.5
 5                           C4A A70U  yeast fitness              =            0.879
 6                 U2C G51U U54A A70U  yeast fitness              ≤              0.5
 7                 U3A A20G C29U G48C  yeast fitness              ≤              0.5
 8                     C11G A15U A65C  yeast fitness              =            0.544
 9                      G9A C31A U47A  yeast fitness              ≤              0.5
10       U8A C24A U28C C61U U64A A69G  yeast fitness              ≤              0.5
11                     C30G C46A G56A  yeast fitness              =            0.557
